- condition-description: Aotus, 10 mg/kg/day oral x7; day 1, 24 h
measured-attribute: Plasma conc on day 1 (ng/ml) 24 h (ng/mL)

(A) CCCCN(CCCC)CC(O)c1cc(-c2ccc(F)cc2)nc2c(Cl)cc(Cl)cc12 (stereo not drawn) [WR074086]
(B) CCCCN(CCCC)CC(O)c1cc(-c2ccc(Cl)cc2)nc2cc(Cl)c(C)cc12 (stereo not drawn) [WR069878]
Ask: Endpoint returns whichever of A and B has the numerically higher Plasma conc on day 1 (ng/ml) 24 h. // caller expects the label of the chosen entry
Result: B

(a) CCCCN(CCCC)CC(O)c1cc(-c2ccc(Cl)cc2)nc2ccc(Cl)cc12 (stereo not drawn) [WR035058]
(b) CCCCN(CCCC)CC(O)c1cc(-c2ccc(Cl)cc2)nc2c(Cl)cc(Cl)cc12 (stereo not drawn) [WR029252]
Ask: Endpoint returns whichever of a and b has the numerically higher Plasma conc on day 1 (ng/ml) 24 h. // caller expects the label of the chosen entry
Result: a
(a: 84 ng/mL, b: 1.0 ng/mL)

(P) CCCCN(CCCC)CC(O)c1cc(-c2ccc(Cl)c(Cl)c2)nc2c(Cl)cc(Cl)cc12 (stereo not drawn) [WR030090]
(Q) CCCCNCC(O)c1cc(-c2ccc(Cl)cc2)nc2c(C)cc(C)cc12 (stereo not drawn) [WR176399]
Ask: // returns P or Q , whichever has the lower Plasma conc on day 1 (ng/ml) 24 h // caller expects the label of the chosen entry
Result: Q

----------
- Test system: primary rat forebrain neurons
- test-method-notes: Neurocytotoxicity assay (MTT)
- condition-description: read-out: Median IC50 against rat neurons; Table 4
measured-attribute: pIC50
Field pIC50 (float): negative decimal logarithm of the concentration in molar.

Ask: Dear colleague, please send me the reported pIC50 for OC(c1cc(C(F)(F)F)nc2c(C(F)(F)F)cccc12)C1CCCCN1 (stereo not shown) [Mefloquine, reference compound] when you can.
Result: 4.70

----------
- condition-description: Aotus, 10 mg/kg/day oral x7; day 7, 2 h
measured-attribute: Plasma conc. on day 7 (ng/ml) 2 h (ng/mL)

# compound, Plasma conc. on day 7 (ng/ml) 2 h (ng/mL)
measured = [
    ("CCCCN(CCCC)CC(O)c1cc(-c2ccc(Cl)cc2)nc2c(Cl)cc(Cl)cc12 (stereo not drawn)", 21),
    ("CCCCN(CCCC)CC(O)c1cc(-c2ccc(Cl)c(Cl)c2)nc2c(Cl)cc(Cl)cc12 (stereo not drawn)", 16),
    ("CCCCN(CCCC)CC(O)c1cc(-c2ccc(F)cc2)nc2c(Cl)cc(Cl)cc12 (stereo not drawn)", 78),
]

(P) CCCCN(CCCC)CC(O)c1cc(-c2ccc(Cl)cc2)nc2cc(Cl)c(C)cc12 (stereo not drawn)
(Q) CCCCN(CCCC)CC(O)c1cc(-c2ccc(Cl)cc2)nc2ccc(Cl)cc12 (stereo not drawn)
(R) CCCCNCC(O)c1cc(-c2ccc(Cl)cc2)nc2c(C)cc(C)cc12 (stereo not drawn)
Ask: List from greatest to least Plasma conc. on day 7 (ng/ml) 2 h. Lab note: final answer is the ordered label list.
Result: Q, P, R

----------
- condition-description: Aotus, 10 mg/kg/day oral x7
measured-attribute: Mean peak concentration (ng/mL)

# compound, Mean peak concentration / ng/mL
rows = [
    ("CCCCN(CCCC)CC(O)c1cc(-c2ccc(F)cc2)nc2c(Cl)cc(Cl)cc12 (stereo not drawn)", 129),
    ("CCCCN(CCCC)CC(O)c1cc(-c2ccc(Cl)cc2)nc2c(Cl)cc(Cl)cc12 (stereo not drawn)", 44),
    ("CCCCN(CCCC)CC(O)c1cc(-c2ccc(Cl)cc2)nc2ccc(Cl)cc12 (stereo not drawn)", 413),
    ("CCCCN(CCCC)CC(O)c1cc(-c2ccc(Cl)c(Cl)c2)nc2c(Cl)cc(Cl)cc12 (stereo not drawn)", 307),
]

(a) CCCCNCC(O)c1cc(-c2ccc(Cl)cc2)nc2c(C)cc(C)cc12 (stereo not drawn)
(b) CCCCN(CCCC)CC(O)c1cc(-c2ccc(Cl)cc2)nc2cc(Cl)c(C)cc12 (stereo not drawn)
Ask: // returns a or b , whichever has the lower Mean peak concentration // caller expects the label of the chosen entry
Result: a

----------
- condition-description: Aotus, 10 mg/kg/day oral x7; day 1, 2 h
measured-attribute: Plasma conc on day 1 (ng/ml) 2 h (ng/mL)

Here are 3 compounds together with their reported answers.
# compound, unit-name, measurement
data = [
    ("CCCCNCC(O)c1cc(-c2ccc(Cl)cc2)nc2c(C)cc(C)cc12 (stereo not drawn)", "ng/mL", 27),
    ("CCCCN(CCCC)CC(O)c1cc(-c2ccc(Cl)c(Cl)c2)nc2c(Cl)cc(Cl)cc12 (stereo not drawn)", "ng/mL", 597),
    ("CCCCN(CCCC)CC(O)c1cc(-c2ccc(Cl)cc2)nc2cc(Cl)c(C)cc12 (stereo not drawn)", "ng/mL", 38),
]

(I) CCCCN(CCCC)CC(O)c1cc(-c2ccc(Cl)cc2)nc2ccc(Cl)cc12 (stereo not drawn)
(II) CCCCN(CCCC)CC(O)c1cc(-c2ccc(F)cc2)nc2c(Cl)cc(Cl)cc12 (stereo not drawn)
(III) CCCCN(CCCC)CC(O)c1cc(-c2ccc(Cl)cc2)nc2c(Cl)cc(Cl)cc12 (stereo not drawn)
Ask: Arrange the 3 compounds by rising Plasma conc on day 1 (ng/ml) 2 h, starting with the smallest. Lab note: final answer is the ordered label list.
Result: III, II, I
(III: 67 ng/mL, II: 179 ng/mL, I: 454 ng/mL)

----------
- condition-description: Aotus, 10 mg/kg/day oral x7; day 7, 24 h
measured-attribute: Plasma conc. on day 7 (ng/ml) 24 h (ng/mL)

# compound, Plasma conc. on day 7 (ng/ml) 24 h (ng/mL)
rows = [
    ("CCCCN(CCCC)CC(O)c1cc(-c2ccc(Cl)cc2)nc2ccc(Cl)cc12 (stereo not drawn)", 105),
    ("CCCCN(CCCC)CC(O)c1cc(-c2ccc(Cl)cc2)nc2cc(Cl)c(C)cc12 (stereo not drawn)", 40),
]

(a) CCCCN(CCCC)CC(O)c1cc(-c2ccc(Cl)cc2)nc2c(Cl)cc(Cl)cc12 (stereo not drawn)
(b) CCCCN(CCCC)CC(O)c1cc(-c2ccc(F)cc2)nc2c(Cl)cc(Cl)cc12 (stereo not drawn)
Ask: // returns a or b , whichever has the lower Plasma conc. on day 7 (ng/ml) 24 h // caller expects the label of the chosen entry
Result: a
(a: 1.0 ng/mL, b: 78 ng/mL)

(P) CCCCNCC(O)c1cc(-c2ccc(Cl)cc2)nc2c(C)cc(C)cc12 (stereo not drawn)
(Q) CCCCN(CCCC)CC(O)c1cc(-c2ccc(Cl)c(Cl)c2)nc2c(Cl)cc(Cl)cc12 (stereo not drawn)
Ask: Endpoint returns whichever of P and Q has the numerically higher Plasma conc. on day 7 (ng/ml) 24 h. // caller expects the label of the chosen entry
Result: Q

The measured values listed here are drawn from patent US20110092488A1.
